- Target desc: G12V-mutant human KRAS (amino acid residues 1-188) (Homo sapiens, UniProt P01116, G12V)
- Construct: G12V-mutant human KRAS (amino acid residues 1-188) with FLAG tag was purified from E. coli; made in house; host or cells: E. coli
- Protocol summary: KRAS Binding Competition Assay (AlphaScreen; biotinylated KRpep-2d analogue), G12V
- Measurement context: geometric mean, read-out: KRAS GMean IC50 (uM) MUTATION: G12V
Provide the recorded IC50 for the entries that follow.

(Q) Reported IC50 for G12V-mutant human KRAS (amino acid residues 1-188) (Homo sapiens, UniProt P01116, G12V), given `CN1CCC[C@H]1COc1nc(N2C[C@H]3CC[C@@H](C2)N3)c2ccc(-c3c[nH]c4ccccc34)cc2n1` ?
(A) 10 to 100 µM

(Q) Please do the same for `Cc1cccc2c1N(c1ccc3c(N4C[C@H]5CC[C@@H](C4)N5)nc(OC[C@@H]4CCCN4C)nc3c1F)CCC2` as well.
(A) 10 to 100 µM

(Q) Please do the same for CN1CCCC1COc1nc(N2C[C@H]3CC[C@@H](C2)N3C(=O)NO)c2ccc(-c3cc(O)cc4ccccc34)c(F)c2n1 (some centres unmarked) as well.
(A) 0.0001 to 10 µM

(Q) Please do the same for `CN1CCC[C@H]1COc1nc(N2C[C@H]3CC[C@@H](C2)N3C(=O)CC(N)=O)c2cc(Cl)c(-c3cc(O)cc4ccccc34)c(F)c2n1` as well.
(A) 10 to 100 µM

(Q) Please do the same for `CN(C)c1ccc(Nc2nc(N3C[C@H]4CC[C@@H](C3)N4)c3cc(Cl)c(-c4c(O)cccc4F)c(F)c3n2)cc1` as well.
(A) 0.0001 to 10 µM

(Q) Please do the same for `Oc1cc(-c2ccc3c(N4[C@@H]5CC[C@H]4CNC5)nc(CC4CCNCC4)nc3c2)c2ccccc2c1` as well.
(A) 10 to 100 µM

(Q) Please do the same for `O=C(c1n[nH]c(=O)[nH]1)N1[C@@H]2CC[C@H]1CN(c1nc(OCC34CCCN3CCC4)nc3cc(-c4cc(O)cc5ccccc45)ccc13)C2` as well.
(A) 0.0001 to 10 µM

(Q) Please do the same for NC1=NC(=O)C(CC(=O)N2[C@@H]3CC[C@H]2CN(c2nc(OCC45CCCN4CCC5)nc4c(F)c(-c5cc(O)cc6ccccc56)ccc24)C3)S1 (some centres unmarked) as well.
(A) 0.0001 to 10 µM

(Q) Please do the same for `Cn1cc(NC(=O)N2[C@@H]3CC[C@H]2CN(c2nc(OCC45CCCN4CCC5)nc4cc(-c5cc(O)cc6ccccc56)ccc24)C3)cn1` as well.
(A) 0.0001 to 10 µM

(Q) Please do the same for `CC(C)(COc1nc(N2C[C@H]3CC[C@@H](C2)N3)c2ccc(-c3cc(O)cc4ccccc34)c(F)c2n1)NC(N)=O` as well.
(A) 10 to 100 µM

(Q) Please do the same for CN1CCC[C@H]1COc1nc(N2C[C@H]3CC[C@@H](C2)N3C(=O)CC2CCNC2=O)c2ccc(-c3cc(O)cc4ccccc34)cc2n1 (some centres unmarked) as well.
(A) 10 to 100 µM

###

- Target desc: G12V-mutant human KRAS (amino acid residues 1-188) (Homo sapiens, UniProt P01116, G12V)
- Construct: G12V-mutant human KRAS (amino acid residues 1-188) with FLAG tag was purified from E. coli; made in house; host or cells: E. coli
- Protocol summary: KRAS Binding Competition Assay (AlphaScreen; biotinylated KRpep-2d analogue), G12V
- Measurement context: geometric mean, read-out: KRAS GMean IC50 (uM) MUTATION: G12V
Provide the recorded IC50 for the entries that follow.

(Q) Entry `CN1CCC[C@H]1COc1nc(N2[C@@H]3CC[C@H]2CN(C(=O)C(N)=O)C3)c2ccc(-c3cc(O)cc4ccccc34)cc2n1` has what IC50?
(A) 10 to 100 µM

(Q) Please do the same for `CC(=O)NCC(=O)N1[C@@H]2CC[C@H]1CN(c1nc(OCC34CCCN3CCC4)nc3cc(-c4cc(O)cc5ccccc45)ccc13)C2` as well.
(A) 0.0001 to 10 µM

(Q) Please do the same for `CN1CCC[C@H]1COc1nc(N2C[C@H]3CC[C@@H](C2)N3)c2ccc(-c3cc(O)cc4ccccc34)cc2n1` as well.
(A) 0.0001 to 10 µM

(Q) Please do the same for `O=C(Cc1n[nH]c2ccccc12)N1[C@@H]2CC[C@H]1CN(c1nc(OCC34CCCN3CCC4)nc3c(F)c(-c4cc(O)cc5ccccc45)ccc13)C2` as well.
(A) 0.0001 to 10 µM

(Q) Please do the same for `Oc1cc(-c2ccc3c(N4C[C@H]5CC[C@@H](C4)N5)nc(OC[C@@H]4CCCN4CCF)nc3c2)c2ccccc2c1` as well.
(A) 10 to 100 µM

(Q) Please do the same for `CN1CCC[C@H]1COc1nc(N2[C@@H]3CC[C@H]2CN(c2nccc(N)n2)C3)c2ccc(-c3cc(O)cc4ccccc34)cc2n1` as well.
(A) 10 to 100 µM

(Q) Please do the same for `CN1CCC[C@H]1COc1nc(N2C[C@H]3CC[C@@H](C2)N3)c2ccc(-c3c[nH]c4ccccc34)c(F)c2n1` as well.
(A) 10 to 100 µM

(Q) Please do the same for `CN1CCN(CCCS(=O)(=O)N2[C@@H]3CC[C@H]2CN(c2nc(OCC45CCCN4CCC5)nc4c(F)c(-c5cc(O)cc6ccccc56)ccc24)C3)CC1` as well.
(A) 0.0001 to 10 µM

(Q) Please do the same for `CN1CCC[C@H]1COc1nc(N2C[C@H]3CC[C@@H](C2)N3)c2cc(F)c(N3CCNc4ccccc43)c(F)c2n1` as well.
(A) 10 to 100 µM
